Tested on: HS 578T breast
assay overview: NCI tumour cell line growth inhibition, 48 h

# compound, test system, TGI
records = [
    ("C[C@]12C=CC(=O)C=C1CC[C@@H]1[C@@H]2CC[C@]2(C)OC(=O)CC[C@@H]12", "HS 578T breast", "> 500 µM"),
    ("COc1c(C)c2c(c(O)c1C/C=C(\\C)CCC(=O)O)C(=O)OC2", "HS 578T breast", "> 100 µM"),
    ("CC(=O)NC1C(OCc2ccccc2)OC(CO)C(O)C1OC(C)C(=O)NC(C(=O)N[C@@H](CCC(=O)NCCNCCNc1c2ccccc2nc2cccc([N+](=O)[O-])c12)C(N)=O)C(C)C (some centres undefined)", "HS 578T breast", "> 100 µM"),
    ("CC(C)=CCC/C(C)=C/CC/C(C)=C/CC/C(C)=C/C=C/C=C(\\C)CC/C=C(\\C)CC/C=C(\\C)CCC=C(C)C", "HS 578T breast", "> 100 µM"),
    ("Cc1nc2ccccc2n1COC(Cn1ccnc1)c1ccc(Cl)cc1Cl (centres undefined)", "HS 578T breast", "> 100 µM"),
    ("Cc1cccc(C)c1NC(=O)C(C#N)C1=C(Cl)C(=O)c2ccccc2C1=O (centres undefined)", "HS 578T breast", "52.1 µM"),
    ("Cn1c2ccccc2c2c(-c3ccccc3)cc3c(c21)C(=O)C=CC3=O", "HS 578T breast", "9.62 µM"),
    ("CCOC(CN(C)C(=O)Nc1cccc2ccccc12)OCC", "HS 578T breast", "> 10 µM"),
    ("CC(C)(C)n1cc(-c2ccnc(NCCCNS(=O)(=O)c3ccc(C(F)(F)F)cc3)c2)c(-c2cccc(O)c2)n1", "HS 578T breast", "4.84 µM"),
    ("COc1cc([N+](=O)[O-])c(OC)cc1-c1nc2sc(Cl)cn2c1/C(N)=N/C(=N)N", "HS 578T breast", "6.8 µM"),
    ("COc1ccc(Nc2nnc(-c3nsc4ccccc34)s2)cc1", "HS 578T breast", "> 100 µM"),
    ("O=C(O)c1cc([N+](=O)[O-])cc2c(=O)c3cnccc3[nH]c12", "HS 578T breast", "> 100 µM"),
    ("C=CCN1C(=O)/C(=C/c2ccco2)N=C1SC/C=C/C", "HS 578T breast", "> 100 µM"),
    ("CC(CCN)(CCN)[N+](=O)[O-]", "HS 578T breast", "> 100 µM"),
    ("CN(CCCCCl)P(=O)(OCc1ccc([N+](=O)[O-])o1)OC[C@H]1O[C@@H](n2cc(F)c(=O)[nH]c2=O)C[C@@H]1O (some centres undefined)", "HS 578T breast", "8.68 µM"),
    ("CN[C@@H](C)C(=O)N[C@H](C(=O)N1CCC[C@H]1C(=O)Nc1snnc1-c1ccccc1)C1CCCCC1", "HS 578T breast", "> 100 µM"),
    ("O=C1/C(=C/c2cccc(Br)c2)CCc2ccccc21", "HS 578T breast", "24.8 µM"),
    ("Cc1csc2[n+]1C(=O)/C(=C\\c1ccc([N+](=O)[O-])cc1)S2", "HS 578T breast", "74.3 µM"),
    ("COc1ccc(-c2c(C#N)c(N)n(C3OCC(OC(C)=O)C(OC(C)=O)C3OC(C)=O)c(=S)c2C#N)cc1 (centres undefined)", "HS 578T breast", "> 100 µM"),
]
